Experiment: gradient 5% acetonitrile 3 min, to 50% in 2 min, to 85% in 15 min, held 3 min, 100 µL/min
Conditions: column: Zorbax Extend-C18 2.1 x 50 mm; eluents: water / acetonitrile, 0.1% formic acid
readout-type: RP-LC retention time (s)

compound	readout-type	endpoint-unit	result-number
COCCN1CCC(CNC(=O)Cc2cccc3ccccc23)CC1	RP-LC retention time	s	561
Cc1ccc(-c2nnc(C)c(NCc3ccccn3)n2)cc1	RP-LC retention time	s	605
Cc1ccc(C)c(NC(=O)C2CCCN2S(C)(=O)=O)c1 (stereo not drawn)	RP-LC retention time	s	738
O=C(Nc1cccc(Cl)c1F)N1CCCC1c1nncn1-c1ccccc1 (stereo not drawn)	RP-LC retention time	s	745
CCC1Oc2ccc(S(=O)(=O)N3CCC(C(=O)NCc4ccc(OC)cc4)CC3)cc2NC1=O (stereo not drawn)	RP-LC retention time	s	839
CC1(C(=O)NCc2ccc3c(c2)OCO3)CCCCC(=O)N1 (stereo not drawn)	RP-LC retention time	s	642
NC(=O)CSc1nnc(N2CCN(C(=O)c3ccccc3[N+](=O)[O-])CC2)s1	RP-LC retention time	s	567
NC(=O)CCCCn1ccc(NC(N)=NCC(F)(F)F)n1	RP-LC retention time	s	617
Cc1ccccc1NC(=O)Nc1cccnc1N(C)C	RP-LC retention time	s	590
CNC(=O)Nc1ccc(C2(C(=O)N3CCN(c4ccccc4)CC3)CCC2)cc1	RP-LC retention time	s	754
CCOc1ccc(-c2nc(-c3ccc4c(c3)oc(=O)n4C)no2)cc1OCC	RP-LC retention time	s	1110
CC(C)(C)C(=O)N1CCCC(c2ccnc(-c3cccc(F)c3)n2)C1 (stereo not drawn)	RP-LC retention time	s	1130
COc1cccc(CN2CCC(Oc3ccccc3-c3nc(-c4cnccn4)no3)C2)n1 (stereo not drawn)	RP-LC retention time	s	702

Origin of measurements: the METLIN SMRT retention time set (Domingo-Almenara et al. 2019)
